# Tested on: SW 982 tumor spheroid viability
# protocol.details: Anticancer human tumor SW 982 cell line growth inhibition;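 further: spheroids exposed to compound for 7 days before readout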
# details: second compound 0.03 µM; first compound 10 µM; hits give low values; spheroids with HUVEC and MSC
Task for the reader: assign each of the following molecules its reported viability, T/C.
Answer in %, number only, no unit symbol.

# input Look up and state reported viability, T/C for COc1cc(C)[nH]c(=O)c1CN1CCc2c(Cl)cc(C(OC)C3COC3)c(Cl)c2C1=O (stereo unspecified) + CC[C@@]1(O)C(=O)OCc2c1cc1n(c2=O)Cc2cc3c(CN(C)C)c(O)ccc3nc2-1
# output 72.5

# input Look up and state reported viability, T/C for [2H]c1nc(C)nc([2H])c1-c1cc(NC[C@@H](C)c2cccc3c(C(=O)NC)ccnc23)ncn1 + CC[C@@]1(O)C(=O)OCc2c1cc1n(c2=O)Cc2cc3c(CN(C)C)c(O)ccc3nc2-1
# output 81.8

# input Look up and state reported viability, T/C for CC1COCCN1c1cc(-c2ccnn2C)c2ccnc(-c3ccn[nH]3)c2n1 (stereo unspecified) + CC[C@@]1(O)C(=O)OCc2c1cc1n(c2=O)Cc2cc3c(CN(C)C)c(O)ccc3nc2-1
# output 13.3

# input Look up and state reported viability, T/C for COc1ccc([C@@H](O)c2cc(-c3ncnc4cc(N5CCOCC5)ccc34)c(F)cc2Cl)nn1 + CC[C@@]1(O)C(=O)OCc2c1cc1n(c2=O)Cc2cc3c(CN(C)C)c(O)ccc3nc2-1
# output 12.8

# input Look up and state reported viability, T/C for Cc1cc(C)c(CNC(=O)c2cc(-c3ccc(CN4CCOCC4)cc3)cc3c2cnn3C2CCCC2)c(=O)[nH]1 + CC[C@@]1(O)C(=O)OCc2c1cc1n(c2=O)Cc2cc3c(CN(C)C)c(O)ccc3nc2-1
# output 62.9

# input Look up and state reported viability, T/C for CC(C)n1c(=O)n(C)c2cnc3cc(F)c(-c4ccc(OCCCN5CCCCC5)nc4)cc3c21 + CC[C@@]1(O)C(=O)OCc2c1cc1n(c2=O)Cc2cc3c(CN(C)C)c(O)ccc3nc2-1
# output 17.1
